The measured values listed here are drawn from patent US6355799B1.

- Tested on: redroot pigweed (Amaranthus retroflexus, AMARE)
- testMethodNotes: Post-emerge test, greenhouse herbicide activity screening
- Type: in vivo
- conditionNotes: 250 g ai/ha; post-emerge; 14 days after application; rating scale 0-100
propertyMeasured: Post-emerge Herbicidal Activity AMARE (phytotoxicity rating)
Write the value as a bare number.

Given item `COc1c(Cl)cc(F)c(-n2c(=O)cc(C(F)(F)F)n(C)c2=O)c1Sc1ccc2ccccc2c1` , the value recorded as its Post-emerge Herbicidal Activity AMARE (phytotoxicity rating) is 70

Sample CCOC(=O)C(Cl)Cc1c(OCC)c(Cl)cc(F)c1-n1c(=O)cc(C(F)(F)F)n(C)c1=O (stereo not drawn) ; Post-emerge Herbicidal Activity AMARE (phytotoxicity rating) observed: 100

Given item `COc1c(Cl)cc(F)c(-n2c(=O)cc(C(F)(F)F)n(C)c2=O)c1NNC(=O)c1ccc2ccccc2c1` , the value recorded as its Post-emerge Herbicidal Activity AMARE (phytotoxicity rating) is 100

So for `COc1cc(Cl)cc(Cl)c1-n1c(=O)cc(C(F)(F)F)n(C)c1=O` , the logged Post-emerge Herbicidal Activity AMARE (phytotoxicity rating) turned out to be 60

Post-emerge Herbicidal Activity AMARE (phytotoxicity rating) recorded for this molecule, `COc1c(Cl)cc(F)c(-n2c(=O)cc(C(F)(F)F)n(C)c2=O)c1NNC(=O)c1ccccc1` , is 100

// recorded Post-emerge Herbicidal Activity AMARE (phytotoxicity rating) for CCOC(=O)C(Cl)Cc1cc(Cl)cc(F)c1-n1c(=O)cc(C(F)(F)F)n(C)c1=O (stereo not drawn) : 100

Briefly, Post-emerge Herbicidal Activity AMARE (phytotoxicity rating) measured for `CCOc1c(Cl)cc(F)c(-n2c(=O)cc(C(F)(F)F)n(C)c2=O)c1Cl` : 50

Documented Post-emerge Herbicidal Activity AMARE (phytotoxicity rating) of `COc1c(Cl)cc(F)c(-n2c(=O)cc(C(F)(F)F)n(C)c2=O)c1SC` : 30

Value of measured Post-emerge Herbicidal Activity AMARE (phytotoxicity rating) for the entry `Cn1c(C(F)(F)F)cc(=O)n(-c2c(Cl)cc(Cl)cc2OC(=O)c2ccc(F)cc2F)c1=O` : 0

----------
- Test system: johnsongrass (Sorghum halepense, SORHA)
- testMethodNotes: Pre-emerge test, greenhouse herbicide activity screening
- Type: in vivo
- conditionNotes: 250 g ai/ha; rating scale 0-100, 14 days after application
- Description: A standard greenhouse herbicide activity screening system was used to evaluate the herbicidal efficacy and crop safety of these test compounds. […] At 14 days after application of the test materials, phytotoxicity ratings were recorded. […]
Assignment: determine reported Pre-emerge herbicidal activity, phytotoxicity rating SORHA for the given compounds.
Lab note: jot down the number only; don't add units.

The compound COc1c(Cl)cc(F)c(-n2c(=O)cc(C(F)(F)F)n(C)c2=O)c1CC(Cl)C(=O)OCC(C)C (single isomer, unassigned) [14-14] showed Pre-emerge herbicidal activity, phytotoxicity rating SORHA equal to 0

Pre-emerge herbicidal activity, phytotoxicity rating SORHA reported for this compound CCCCOC(=O)C(Cl)Cc1c(OC)c(Cl)cc(F)c1-n1c(=O)cc(C(F)(F)F)n(C)c1=O (single isomer, unassigned) : 0

Reported Pre-emerge herbicidal activity, phytotoxicity rating SORHA of COc1c(Cl)cc(F)c(-n2c(=O)cc(C(F)(F)F)n(C)c2=O)c1CC(Cl)C(=O)OCC(F)(F)F (stereo not shown) : 35

Measured Pre-emerge herbicidal activity, phytotoxicity rating SORHA of COc1c(Cl)cc(F)c(-n2c(=O)cc(C(F)(F)F)n(C)c2=O)c1CC(Cl)C(=O)OC(C)(C)C (stereo not shown) : 10

----------
What phytotoxicity rating SORHA was measured for each of the following?
- System: johnsongrass (Sorghum halepense, SORHA)
- testMethodNotes: Pre-emerge test, greenhouse herbicide activity screening
- Assay type: in vivo
- conditionNotes: pre-emerge, 250 g ai/ha, 14 days after application, rating scale 0-100

The value of phytotoxicity rating SORHA recorded for `COc1cc(Cl)cc(Cl)c1-n1c(=O)cc(C(F)(F)F)n(C)c1=O` when tested on johnsongrass (Sorghum halepense, SORHA) reads 30

Item `CCOc1c(Cl)cc(F)c(-n2c(=O)cc(C(F)(F)F)n(C)c2=O)c1Cl` ; assay system johnsongrass (Sorghum halepense, SORHA); phytotoxicity rating SORHA reported as 60

Sample COc1c(Cl)cc(F)c(-n2c(=O)cc(C(F)(F)F)n(C)c2=O)c1CC(C)(Cl)C(=O)OCCSC (stereo not shown) , system: johnsongrass (Sorghum halepense, SORHA). Its phytotoxicity rating SORHA is 0

Tested on johnsongrass (Sorghum halepense, SORHA), the item O=c1cc(C(F)(F)F)[nH]c(=O)n1-c1c(Cl)cc(C(F)(F)F)cc1Cl [compound 2, reference compound] showed phytotoxicity rating SORHA equal to 0

----------
- Test system: green foxtail (Setaria viridis, SETVI)
- testMethodNotes: Pre-emerge test, greenhouse herbicide activity screening
- Type: in vivo
- conditionNotes: pre-emerge, rate 63 g ai/ha, phytotoxicity rating 0-100 at 14 days after application
- Description: A standard greenhouse herbicide activity screening system was used to evaluate the herbicidal efficacy and crop safety of these test compounds. […] At 14 days after application of the test materials, phytotoxicity ratings were recorded. […]
Record form. Attribute: Pre-emerge Herbicidal Activity SETVI. Fill in for each entry.

Given item `Cc1c(Cl)cc(F)c(-n2c(=O)cc(C(F)(F)F)n(C)c2=O)c1NC(=O)OCCc1ccccc1` , the value recorded as its Pre-emerge Herbicidal Activity SETVI is 80

The reported value for `Cc1c(Cl)cc(F)c(-n2c(=O)cc(C(F)(F)F)n(C)c2=O)c1NC(=O)OCc1ccc(Cl)cc1` in terms of Pre-emerge Herbicidal Activity SETVI is 80

The measured Pre-emerge Herbicidal Activity SETVI associated with `Cc1nn(-c2c(F)cc(Cl)cc2NC(=O)c2ccc(F)cc2F)c(=O)n1C(F)F` reads 0

Entry under test: `CC(C)Oc1c(Cl)cc(F)c(N2C(=O)C3=C(CCCC3)C2=O)c1NC(=O)c1ccc(F)cc1F` . Its Pre-emerge Herbicidal Activity SETVI was 50

# Pre-emerge Herbicidal Activity SETVI of `O=C(Nc1cc(Cl)ccc1-n1c(=O)n2n(c1=O)CCCC2)c1ccc2ccccc2c1` = 0

The recorded Pre-emerge Herbicidal Activity SETVI for entry `COc1c(Cl)cc(F)c(-n2nnn(CCCF)c2=O)c1NC(=O)c1ccc2ccccc2c1` equals 60

----------
Exercise: for every item that follows, state its recorded phytotoxicity rating ECHCG.
- System: barnyardgrass (Echinochloa crus-galli, ECHCG)
- testMethodNotes: Post-emerge test, greenhouse herbicide activity screening
- Format: in vivo
- conditionNotes: post-emerge, 63 g ai/ha, 14 days after application, rating scale 0-100
Please give the numeric answer without any surrounding text.

Item: `COc1c(Cl)cc(F)c(-n2c(=O)cc(C(F)(F)F)n(C)c2=O)c1NC(=O)c1ccc(Br)cc1` | phytotoxicity rating ECHCG: 40

Just so you know, measured phytotoxicity rating ECHCG for `COc1c(Cl)cc(F)c(-n2c(=O)cc(C(F)(F)F)n(C)c2=O)c1NC(=O)c1c(F)c(F)c(F)c(F)c1F` came out at 0

The value of phytotoxicity rating ECHCG measured for the molecule `Cn1c(C(F)(F)F)cc(=O)n(-c2ccc(C(N)=S)cc2NC(=O)c2ccc3ccccc3c2)c1=O` turned out to be 0

Just so you know, measured phytotoxicity rating ECHCG for `COc1c(Cl)cc(F)c(-n2c(=O)cc(C(F)(F)F)n(C)c2=O)c1NC(N)=O` came out at 0

----------
Assignment: determine reported phytotoxicity rating SETVI for the given compounds.
- Test system: green foxtail (Setaria viridis, SETVI)
- testMethodNotes: Pre-emerge test, greenhouse herbicide activity screening
- Assay type: in vivo
- conditionNotes: pre-emerge, 250 g ai/ha, 14 days after application, scale 0-100
- Protocol: A standard greenhouse herbicide activity screening system was used to evaluate the herbicidal efficacy and crop safety of these test compounds. […] At 14 days after application of the test materials, phytotoxicity ratings were recorded. […]
Answer with a number only.

Notebook: `COc1c(Cl)cc(F)c(-n2c(=O)cc(C(F)(F)F)n(C)c2=O)c1NC(=O)CCc1cc(C)ccc1C` , phytotoxicity rating SETVI read as 100

Input `COc1c(C#N)cc(F)c(-n2c(=O)cc(C(F)(F)F)n(C)c2=O)c1NC(=O)c1ccc2ccccc2c1` . Output phytotoxicity rating SETVI: 95

Form field phytotoxicity rating SETVI, entry `Cn1c(C(F)(F)F)cc(=O)n(-c2c(F)cc(Cl)cc2NC(=O)c2ccc3ccccc3c2)c1=O` : 100

Form: compound = `COc1c(Cl)cc(F)c(-n2c(=O)cc(C(F)(F)F)n(C)c2=O)c1NC(=O)C=Cc1cccc(Cl)c1` ; phytotoxicity rating SETVI = 80

Value of phytotoxicity rating SETVI reported for the compound `CCOC(=O)CSCC(=O)Nc1c(OC)c(Cl)cc(F)c1-n1c(=O)cc(C(F)(F)F)n(C)c1=O` is 90

Sure, the documented phytotoxicity rating SETVI for `COc1c(Cl)cc(F)c(-n2c(=O)cc(C(F)(F)F)n(C)c2=O)c1NC(=O)COc1ccc(Cl)cc1Cl` is 100

According to the records, this compound `Cc1c(Cl)cc(F)c(-n2c(=O)cc(C(F)(F)F)n(C)c2=O)c1NC(=O)C=Cc1ccccc1` displays phytotoxicity rating SETVI of 100

The recorded phytotoxicity rating SETVI for entry `COc1c(Br)cc(F)c(-n2c(=O)cc(C(F)(F)F)n(C)c2=O)c1NC(=O)C=Cc1ccccc1` equals 70

Measured phytotoxicity rating SETVI of `Cn1c(C(F)(F)F)cc(=O)n(-c2ccc(Cl)cc2NC(=O)c2ccc3ccccc3c2)c1=O` : 90

// phytotoxicity rating SETVI lookup, compound = `COc1ccccc1C=CC(=O)Nc1c(OC)c(Cl)cc(F)c1-n1c(=O)cc(C(F)(F)F)n(C)c1=O` , result: 80

Reported phytotoxicity rating SETVI for `COc1c(Cl)cc(F)c(-n2c(=O)cc(C(F)(F)F)n(C)c2=O)c1NC(=O)c1ccc2ccccc2c1OC` was 90

The compound listed as `COc1c(Cl)cc(F)c(-n2c(=O)cc(C(F)(F)F)n(C)c2=O)c1NC(=O)CCc1ccccc1C` shows phytotoxicity rating SETVI equal to 100

The compound listed as `COc1c(Br)cc(F)c(-n2c(=O)cc(C(F)(F)F)n(C)c2=O)c1N(C(=O)C=Cc1ccccc1)C(=O)C=Cc1ccccc1` shows phytotoxicity rating SETVI equal to 20

Entry `COc1ccc(-n2c(=O)cc(C(F)(F)F)n(C)c2=O)c(NC(=O)c2ccc3ccccc3c2)c1` ; phytotoxicity rating SETVI = 70

Value of measured phytotoxicity rating SETVI for the entry `COc1c(Cl)cc(F)c(-n2c(=O)cc(C(F)(F)F)n(N)c2=O)c1NC(=O)C=Cc1ccccc1` : 50
